Data origin: ChEMBL document CHEMBL3217454

- Test system: Human immunodeficiency virus 1
- PROTOCOL DETAILS: Binding affinity to HLT-tagged HIV-1 Rev measured after overnight incubation by chemiluminescence analysis relative to IN 118-128
- Set-up: concentration or dose not given beside the values
Peptide text beside a SMILES is read from it.
QUANTITY NAME: Activity (%)
Your answer should be a plain number; it is taken to be in %.

Check out these entries, answers already filled in.
COMPOUND	UNIT LABEL	NUMERIC VALUE
CC(C)[C@H](NC(=O)[C@@H](NC(=O)[C@@H](NC(=O)[C@H](CO)NC(=O)[C@@H](N)[C@@H](C)O)[C@@H](C)O)[C@@H](C)O)C(=O)N[C@@H](CCCCN)C(=O)N[C@@H](C)C(=O)O (H-TSTTVKA-OH)	%	111
CC(C)[C@H](NC(=O)[C@@H](NC(=O)[C@@H](NC(=O)[C@H](CO)NC(=O)[C@@H](NC(=O)[C@H](Cc1ccccc1)NC(=O)[C@H](CC(N)=O)NC(=O)[C@H](CO)NC(=O)CN)[C@@H](C)O)[C@@H](C)O)[C@@H](C)O)C(=O)N[C@@H](C)C(=O)N[C@@H](C)C(=O)O (H-GSNFTSTTVAA-OH)	%	0
CC(C)[C@H](NC(=O)[C@@H](NC(=O)[C@@H](NC(=O)[C@H](CO)NC(=O)[C@@H](NC(=O)[C@H](Cc1ccccc1)NC(=O)[C@H](CC(N)=O)NC(=O)[C@H](CO)NC(=O)[C@H](C)N)[C@@H](C)O)[C@@H](C)O)[C@@H](C)O)C(=O)N[C@@H](CCCCN)C(=O)N[C@@H](C)C(=O)O (H-ASNFTSTTVKA-OH)	%	77

We next turn to a different compound, shown below.
Challenge: May I ask what Activity has been recorded for C[C@@H](O)[C@H](NC(=O)[C@@H](NC(=O)[C@H](CO)NC(=O)[C@@H](NC(=O)[C@H](Cc1ccccc1)NC(=O)[C@H](CC(N)=O)NC(=O)[C@H](CO)NC(=O)CN)[C@@H](C)O)[C@@H](C)O)C(=O)O (H-GSNFTSTT-OH) ?
Response given: 0

###

- TARGET OF ASSAY: Human immunodeficiency virus type 1 integrase (Human immunodeficiency virus 1)
- PROTOCOL DETAILS: Binding affinity to HIV-1 integrase measured after overnight incubation by chemiluminescence analysis relative to IN 174-188
- Set-up: concentration or dose not given beside the values
Square brackets hold non-standard residues; d marks the D form. Peptide text beside a SMILES is read from it. NMeR = CN[C@@H](CCCNC(=N)N)C(=O)O; NMeF = CN[C@@H](Cc1ccccc1)C(=O)O; NMeA = CN[C@@H](C)C(=O)O
Recorded Activity by entry
Your reply should be a number followed by the unit it is expressed in.

COMPOUND	TARGET OF ASSAY	Activity
CC[C@H](C)[C@H](NC(=O)[C@H](Cc1ccccc1)NC(=O)[C@@H](NC(=O)[C@H](C)NC(=O)[C@H](CCSC)NC(=O)[C@H](CCC(N)=O)NC(=O)[C@@H](NC(=O)[C@H](C)NC(=O)[C@@H](N)[C@@H](C)O)C(C)C)C(C)C)C(=O)N[C@@H](Cc1cnc[nH]1)C(=O)N[C@@H](CC(N)=O)C(=O)N[C@@H](Cc1ccccc1)C(=O)O (H-TAVQMAVFIHNF-OH)	Human immunodeficiency virus type 1 integrase (Human immunodeficiency virus 1)	0%
CC[C@H](C)[C@H](NC(=O)[C@H](Cc1ccccc1)NC(=O)[C@H](C)NC(=O)[C@H](C)NC(=O)[C@H](CCSC)NC(=O)[C@H](CCC(N)=O)NC(=O)[C@@H](NC(=O)[C@H](C)NC(=O)[C@@H](N)[C@@H](C)O)C(C)C)C(=O)N[C@@H](Cc1cnc[nH]1)C(=O)N[C@@H](CC(N)=O)C(=O)N[C@@H](Cc1ccccc1)C(=O)N[C@@H](CCCCN)C(=O)N[C@@H](CCCNC(=N)N)C(=O)N[C@@H](CCCCN)C(=O)O (H-TAVQMAAFIHNFKRK-OH)	Human immunodeficiency virus type 1 integrase (Human immunodeficiency virus 1)	123%
CC[C@H](C)[C@H](NC(=O)[C@H](Cc1ccccc1)NC(=O)[C@@H](NC(=O)[C@H](C)NC(=O)[C@H](CCSC)NC(=O)[C@H](CCC(N)=O)NC(=O)[C@@H](NC(=O)[C@H](C)N(C)C(=O)[C@@H](N)[C@@H](C)O)C(C)C)C(C)C)C(=O)N[C@@H](Cc1cnc[nH]1)C(=O)N[C@@H](CC(N)=O)C(=O)N[C@@H](Cc1ccccc1)C(=O)N[C@@H](CCCCN)C(=O)N[C@@H](CCCNC(=N)N)C(=O)N[C@@H](CCCCN)C(=O)O (H-T[NMeA]VQMAVFIHNFKRK-OH)	Human immunodeficiency virus type 1 integrase (Human immunodeficiency virus 1)	75%
CC[C@H](C)[C@H](NC(=O)[C@H](Cc1ccccc1)NC(=O)[C@H](NC(=O)[C@H](C)NC(=O)[C@H](CCSC)NC(=O)[C@H](CCC(N)=O)NC(=O)[C@@H](NC(=O)[C@H](C)NC(=O)[C@@H](N)[C@@H](C)O)C(C)C)C(C)C)C(=O)N[C@@H](Cc1cnc[nH]1)C(=O)N[C@@H](CC(N)=O)C(=O)N[C@@H](Cc1ccccc1)C(=O)N[C@@H](CCCCN)C(=O)N[C@@H](CCCNC(=N)N)C(=O)N[C@@H](CCCCN)C(=O)O	Human immunodeficiency virus type 1 integrase (Human immunodeficiency virus 1)	108%
CC[C@H](C)[C@H](NC(=O)[C@H](Cc1ccccc1)NC(=O)[C@@H](NC(=O)[C@H](C)NC(=O)[C@H](CCSC)NC(=O)[C@H](CCC(N)=O)NC(=O)[C@@H](NC(=O)[C@H](C)NC(=O)[C@@H](N)[C@@H](C)O)C(C)C)C(C)C)C(=O)N[C@@H](Cc1cnc[nH]1)C(=O)N[C@@H](CC(N)=O)C(=O)N[C@@H](Cc1ccccc1)C(=O)N[C@@H](CCCCN)C(=O)N(C)[C@@H](CCCNC(=N)N)C(=O)N[C@@H](CCCCN)C(=O)O (H-TAVQMAVFIHNFK[NMeR]K-OH)	Human immunodeficiency virus type 1 integrase (Human immunodeficiency virus 1)	123%
CC[C@H](C)[C@H](NC(=O)[C@H](Cc1ccccc1)NC(=O)[C@@H](NC(=O)[C@H](C)N)C(C)C)C(=O)N[C@@H](Cc1cnc[nH]1)C(=O)N[C@@H](CC(N)=O)C(=O)N[C@@H](Cc1ccccc1)C(=O)N[C@@H](CCCCN)C(=O)N[C@@H](CCCNC(=N)N)C(=O)N[C@@H](CCCCN)C(=O)O (H-AVFIHNFKRK-OH)	Human immunodeficiency virus type 1 integrase (Human immunodeficiency virus 1)	120%

Challenge: Given the entry CC[C@H](C)[C@H](NC(=O)[C@H](Cc1ccccc1)N(C)C(=O)[C@@H](NC(=O)[C@H](C)NC(=O)[C@H](CCSC)NC(=O)[C@H](CCC(N)=O)NC(=O)[C@@H](NC(=O)[C@H](C)NC(=O)[C@@H](N)[C@@H](C)O)C(C)C)C(C)C)C(=O)N[C@@H](Cc1cnc[nH]1)C(=O)N[C@@H](CC(N)=O)C(=O)N[C@@H](Cc1ccccc1)C(=O)N[C@@H](CCCCN)C(=O)N[C@@H](CCCNC(=N)N)C(=O)N[C@@H](CCCCN)C(=O)O (H-TAVQMAV[NMeF]IHNFKRK-OH) , report its measured Activity.
Response given: 141%

Challenge: Find the recorded Activity belonging to CC[C@H](C)[C@H](NC(=O)[C@@H](N)Cc1ccccc1)C(=O)N[C@@H](Cc1cnc[nH]1)C(=O)N[C@@H](CC(N)=O)C(=O)N[C@@H](Cc1ccccc1)C(=O)N[C@@H](CCCCN)C(=O)N[C@@H](CCCNC(=N)N)C(=O)N[C@@H](CCCCN)C(=O)O (H-FIHNFKRK-OH) and report it.
Response given: 133%

Challenge: Entry CC[C@H](C)[C@H](NC(=O)[C@H](Cc1ccccc1)NC(=O)[C@@H](NC(=O)[C@H](C)NC(=O)[C@H](CCSC)NC(=O)[C@@H](N)CCC(N)=O)C(C)C)C(=O)N[C@@H](Cc1cnc[nH]1)C(=O)N[C@@H](CC(N)=O)C(=O)N[C@@H](Cc1ccccc1)C(=O)N[C@@H](CCCCN)C(=O)N[C@@H](CCCNC(=N)N)C(=O)N[C@@H](CCCCN)C(=O)O (H-QMAVFIHNFKRK-OH) : reported Activity = ?
Response given: 122%

Challenge: Recorded Activity of CC[C@H](C)[C@H](NC(=O)[C@H](Cc1ccccc1)NC(=O)[C@@H](NC(=O)[C@H](C)NC(=O)[C@@H](CCSC)NC(=O)[C@H](CCC(N)=O)NC(=O)[C@@H](NC(=O)[C@H](C)NC(=O)[C@@H](N)[C@@H](C)O)C(C)C)C(C)C)C(=O)N[C@@H](Cc1cnc[nH]1)C(=O)N[C@@H](CC(N)=O)C(=O)N[C@@H](Cc1ccccc1)C(=O)N[C@@H](CCCCN)C(=O)N[C@@H](CCCNC(=N)N)C(=O)N[C@@H](CCCCN)C(=O)O , please.
Response given: 127%
